experiment: inhibition of 3D7 malaria parasite growth – strain 3D7 (AID 2306);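 note: 0% = DMSO wells and 100% = chloroquine plus artemisinin control wells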; details: P. falciparum 3D7 erythrocytic growth, LDH absorbance, 72 h; at 2 µM; active compounds read high
measure: growth inhibition (%)
Your answer should be a plain number; it is taken to be in %.

# molecule, growth inhibition, %
rows = [
    ("Cc1[nH]c2c(NCc3ccc(F)cc3)nccc2c1C", 83),
    ("COc1cc(-c2ccc3c(-c4ccc(C(=O)N5CCN(C)CC5)cc4)[nH]nc3n2)cc(OC)c1OC", 91),
    ("CSc1ccc(C=CC(=O)NC(=O)c2ccccc2O)cc1", 97),
    ("O=C(NCc1ccc(Cl)cc1)c1ccc(CN2CCCN(CC3CCCCC3)CC2)cc1", 84),
]

Switching to the query record.
Suppose we examine the molecule COc1ccc2nccc([C@@H](O)CN3CCC(NC(=O)C(c4cc5ccccc5o4)N4CCN(c5ccc(F)cc5)CC4)CC3)c2c1 (stereo not given in full) ; what growth inhibition value has been reported? 100
